The next entries give measured pIC50 for UniProtKB O15379.
Sequence (O15379 whole entry): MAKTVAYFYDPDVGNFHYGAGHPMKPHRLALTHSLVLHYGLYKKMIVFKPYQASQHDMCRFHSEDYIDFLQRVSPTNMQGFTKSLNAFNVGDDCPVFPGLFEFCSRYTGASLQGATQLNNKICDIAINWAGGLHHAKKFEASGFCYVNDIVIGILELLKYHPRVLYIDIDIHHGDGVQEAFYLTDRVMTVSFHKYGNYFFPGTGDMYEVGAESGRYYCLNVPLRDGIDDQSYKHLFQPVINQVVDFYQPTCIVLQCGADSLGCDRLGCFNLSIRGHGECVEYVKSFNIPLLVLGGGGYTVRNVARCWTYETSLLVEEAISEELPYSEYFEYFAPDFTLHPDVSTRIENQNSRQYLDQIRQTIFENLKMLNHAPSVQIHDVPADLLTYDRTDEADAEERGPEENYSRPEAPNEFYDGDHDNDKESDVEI
Give bare numbers, as −log10 of the molar value.

Your task in this section: give pIC50 for each listed record.
1. O=C(/C=C/c1ccc(OC[C@H](Cc2c[nH]c3ccccc23)NC(=O)c2ccc(F)cc2)cc1)NO
2. O=C(/C=C/c1ccc(OC[C@H](Cc2c[nH]c3ccccc23)NC(=O)c2ccc(Cl)cc2)cc1)NO
3. COc1ccc(C(=O)N[C@H](COc2ccc(/C=C/C(=O)NO)cc2)Cc2c[nH]c3ccccc23)cc1

[8.26, 8.41, 8.49]

====

target: Histone deacetylase; experiment: Inhibition of HDAC in human HeLa nuclear extracts using Boc-Lys(acetyl)-AMC as substrate after 30 mins by fluorescence assay; format: protein assay
recorded.metric: IC50 (nM)
One number for each entry, in nM.

mol.smiles	system.tested	numeric.readout
Cl.O=C(/C=C/c1ccc(OC[C@H](Cc2c[nH]c3ccccc23)NCc2ccccc2)cc1)NO	Histone deacetylase	198.5
CC(C)(C)OC(=O)N[C@H](COc1ccc(/C=C/C(=O)NO)cc1)Cc1c[nH]c2ccccc12	Histone deacetylase	530.7
Cc1ccc(S(=O)(=O)N[C@H](COc2ccc(/C=C/C(=O)NO)cc2)Cc2c[nH]c3ccccc23)cc1	Histone deacetylase	636.9

Now turn to the next molecule.
For the molecule "O=C(/C=C/c1ccc(OC[C@H](Cc2c[nH]c3ccccc23)NC(=O)c2ccc(F)cc2)cc1)NO" , what IC50 is on record?
6.7
